- Test system: P388 leukemia ip, CD2F1 mice, survival T/C
- assayProtocol: NCI In Vivo Anticancer Drug Screen. Data for tumor model P388 Leukemia (intraperitoneal) in CD2F1 (CDF1) mice
- conditionContext: endpoint: median survival time; dose: 400.0 mg/kg/injection; schedule: Q04DX003 (ip); vehicle: saline with Tween-80; higher = longer survival
Toxic doses and inconclusive results are not listed.
measurementName: T/C

- Cc1ccc(NS(=O)(=O)c2ccc3ccccc3c2)c(C)c1: 104 % of control
- O=C1CC(=O)N2CCSC2=N1: 98 % of control
- S=c1sc2ccccc2n1CCNc1ccccc1: 104 % of control
- CCOC(=O)CN=CC1CCC=CO1 (centres undefined): 100 % of control
- CCOC(=O)C(Cc1c[nH]c2ccccc12)(NC(C)=O)C(=O)OCC: 100 % of control
- CCOC(=O)[C]1([Sb]([CH3])[CH3])N=NC(C(=O)OC)=C1C(=O)OC (centres undefined): 105 % of control
- COC(=O)C1=C/CCCN(CCC2OCCO2)/C=C\1C(=O)OC: 108 % of control
- Ic1ncnc2c1ncn2C1CCCCO1 (centres undefined): 95 % of control
- CC(C)C(NC(=O)C(C)N(C)C)C(=O)N1CCC2Oc3ccc(cc3)/C=C\NC(=O)C(Cc3ccccc3)NC(=O)C21 (centres undefined): 96 % of control

====

- System: P388 leukemia ip, CD2F1 mice, survival T/C
- assayProtocol: NCI In Vivo Anticancer Drug Screen. Data for tumor model P388 Leukemia (intraperitoneal) in CD2F1 (CDF1) mice
- conditionContext: endpoint: median survival time; dose: 60.0 mg/kg/injection; schedule: Q01DX005 (ip); vehicle: saline with Tween-80; higher = longer survival
Toxic doses and inconclusive results are not listed.
measurementName: T/C

- CCOC(=O)c1c(C)n(C)c2c1nnc1ccccc12: 98 % of control
- COC(=O)C1(CC(=O)c2ccc3ccccc3c2)NC(=S)NC(=O)C1C#N (stereo unspecified): 95 % of control
- COc1ccc(S(=O)(=O)F)cc1NC(=O)Oc1ccccc1: 105 % of control
- OCC1CC12c1ccccc1-c1ccccc12 (stereo unspecified): 98 % of control
- CC(Cc1ccccc1)NC(=O)C1CC2CCCCN2C1C (stereo unspecified): 97 % of control
- COc1cc(/C=C/C(=O)Sc2ccccc2)cc(OC)c1O: 109 % of control
- C=C(C)CCCCOCOCCOC: 99 % of control
- COc1ccc(-c2c(C(=O)O)oc3cc(O)ccc3c2=O)cc1OC: 99 % of control
- Cc1cc2nc(CC(=O)c3ccc4ccccc4c3)c(=O)[nH]c2cc1C: 90 % of control
- CCN(CC)c1cccc(OC(=O)Nc2cccc(C(F)(F)F)c2)c1: 106 % of control
- C[N+]1=C(c2ccc[nH]2)CC(C(=O)[O-])CC1 (stereo unspecified): 100 % of control
- CC1CC(=O)N1C(=O)CCN=C=S (stereo unspecified): 111 % of control
- O=[N+]([O-])C1CCC(N=Nc2c(O)ccc3ccccc23)CC1 (stereo unspecified): 96 % of control
- C=C1NC(=O)C(N)=C1C(C)=O: 100 % of control
- COc1cc(C2C(C#N)=C(C)Nc3nc(N)nc(N)c32)cc(OC)c1OC (stereo unspecified): 94 % of control
- O=C1OC2CCCC2C12C(=O)O[C@@H]1CCC[C@@H]12 (mixture of isomers): 97 % of control
- CC1OC(Oc2c(-c3ccc(O)c(O)c3O)oc3cc(O)ccc3c2=O)C(O)C(O)C1O (stereo unspecified): 102 % of control
- CCCSC(=O)Nc1cc(OC)ccc1OC: 98 % of control
- CC(=O)OCC1OC(Nc2[nH]c(=O)n(C)c(=O)c2C=O)C(OC(C)=O)C(OC(C)=O)C1OC(C)=O (stereo unspecified): 105 % of control
- COc1ccc(OC)c(NC(=O)CCCC(=O)CC(=O)C(C)(C)C)c1: 101 % of control
- CC(C)c1cccc(C(C)C)c1NC(=O)N1CCCCC1: 99 % of control
- CC(C)(Br)C(=O)N1CCN(C(c2ccccc2)c2ccccc2)CC1: 92 % of control
- CC(=O)C(C)(CC#N)C(CC=O)CCC#N (stereo unspecified): 111 % of control
- O=C1c2ccccc2C(=O)c2c1ccc1nc(Cl)c(=O)[nH]c21: 94 % of control
- OC1c2cc(Cl)ccc2-c2c(N=Cc3ccc4c(c3)OCO4)cc(Cl)cc21 (stereo unspecified): 91 % of control
- C=C(C)c1ccc2c(c1)[C@H](OC(=O)c1ccccc1)C[C@H]1[C@](C)(COC(=O)c3ccccc3)CCC[C@]21C: 105 % of control
